Data provenance is the supplement of paper PMC9112550.

# System: Escherichia coli TOP10
# assay_details: shrunken log2 fold change of peptide-encoding DNA abundance (4.5 h post-induction vs induction); higher = less antimicrobial activity (less host growth inhibition)
# measurement_conditions: time post-induction: 4.5 h; library: site-saturation at positions 5, 18, 19, 20
Answer No if shrunken log2 fold change is under -0.01, and Yes if it is -0.01 or more.

seq=RRIRQRPPRLPRPRPRPNVFPRP discrete_label=No

Query string: Determine whether measured shrunken log2 fold change meets or exceeds -0.01 for "RRIRVRPPRLPRPRPRPDPDPRP"
Result string: No

Query string: Determine whether measured shrunken log2 fold change meets or exceeds -0.01 for "RRIRTRPPRLPRPRPRPYATPRP"
Result string: No

Query string: Determine whether measured shrunken log2 fold change meets or exceeds -0.01 for "RRIRQRPPRLPRPRPRPDKSPRP"
Result string: No

Query string: Determine whether measured shrunken log2 fold change meets or exceeds -0.01 for "RRIRLRPPRLPRPRPRPKIFPRP"
Result string: No

Query string: Determine whether measured shrunken log2 fold change meets or exceeds -0.01 for "RRIRMRPPRLPRPRPRPPRWPRP"
Result string: No

Query string: Determine whether measured shrunken log2 fold change meets or exceeds -0.01 for "RRIRVRPPRLPRPRPRPEIIPRP"
Result string: No

----------
# Test system: Escherichia coli TOP10
# assay_details: shrunken log2 fold change of peptide-encoding DNA abundance (4.5 h post-induction vs induction); higher = less antimicrobial activity (less host growth inhibition)
# measurement_conditions: time post-induction: 4.5 h; library: site-saturation at positions 5, 18, 19, 20
Would you mind telling me the reported shrunken log2 fold change of each entry?
One number for each entry.

Solved cases (2 shown):
seq=RRIRQRPPRLPRPRPRPCRFPRP experimental_readout="shrunken log2 fold change" reported_value=0.00388
seq=RRIRLRPPRLPRPRPRPRWDPRP experimental_readout="shrunken log2 fold change" reported_value=0.141

For each entry beneath this line, provide reported shrunken log2 fold change.
1. RRIRYRPPRLPRPRPRPESKPRP
2. RRIRRRPPRLPRPRPRPSGDPRP
3. RRIRGRPPRLPRPRPRPCIYPRP
4. RRIRKRPPRLPRPRPRPDHYPRP

Result string:
1. -0.859
2. 0.233
3. 0.0369
4. -0.0322

----------
# Test system: Escherichia coli TOP10
# assay_details: shrunken log2 fold change of peptide-encoding DNA abundance (4.5 h post-induction vs induction); higher = less antimicrobial activity (less host growth inhibition)
# measurement_conditions: time post-induction: 4.5 h; library: site-saturation at positions 5, 18, 19, 20
Would you mind telling me the reported shrunken log2 fold change of each entry?
Answers are plain numbers.

Solved cases (2 shown):
seq=RRIRERPPRLPRPRPRPYVIPRP experimental_readout="shrunken log2 fold change" reported_value=-0.172
seq=RRIRIRPPRLPRPRPRPDTKPRP experimental_readout="shrunken log2 fold change" reported_value=-0.188

Query string: Query shrunken log2 fold change on Escherichia coli TOP10 for "RRIRIRPPRLPRPRPRPASCPRP"
Result string: -0.1

----------
# Tested on: Escherichia coli TOP10
# assay_details: shrunken log2 fold change of peptide-encoding DNA abundance (4.5 h post-induction vs induction); higher = less antimicrobial activity (less host growth inhibition)
# measurement_conditions: time post-induction: 4.5 h; library: site-saturation at positions 5, 18, 19, 20
Would you mind telling me the reported shrunken log2 fold change of each entry?
Numbers only.

Solved cases (5 shown):
seq=RRIRYRPPRLPRPRPRPRINPRP reported_value=-0.196
seq=RRIRQRPPRLPRPRPRPRNVPRP reported_value=-0.0777
seq=RRIRIRPPRLPRPRPRPGNYPRP reported_value=-0.261
seq=RRIRIRPPRLPRPRPRPMHLPRP reported_value=-0.22
seq=RRIRNRPPRLPRPRPRPYNWPRP reported_value=-0.161

For each entry beneath this line, provide reported shrunken log2 fold change.
1. RRIRSRPPRLPRPRPRPHFHPRP
2. RRIRLRPPRLPRPRPRPTIEPRP
3. RRIRLRPPRLPRPRPRPVGFPRP
4. RRIRNRPPRLPRPRPRPMFLPRP
5. RRIRSRPPRLPRPRPRPQQHPRP
6. RRIRARPPRLPRPRPRPQRWPRP

Result string:
[-0.428, 0.033, 0.212, -0.241, 0.0668, 0.172]

----------
Would you mind telling me the reported shrunken log2 fold change of each entry?
# System: Escherichia coli TOP10
# assay_details: shrunken log2 fold change of peptide-encoding DNA abundance (4.5 h post-induction vs induction); higher = less antimicrobial activity (less host growth inhibition)
# measurement_conditions: time post-induction: 4.5 h; library: site-saturation at positions 5, 18, 19, 20
One number for each entry.

Solved cases (3 shown):
seq=RRIRIRPPRLPRPRPRPTCWPRP reported_value=0.151
seq=RRIRPRPPRLPRPRPRPTSTPRP reported_value=-0.0454
seq=RRIRVRPPRLPRPRPRPTEKPRP reported_value=-0.0708

For each entry beneath this line, provide reported shrunken log2 fold change.
1. RRIRCRPPRLPRPRPRPRYDPRP
2. RRIRERPPRLPRPRPRPRDKPRP

Result string:
-0.596
-0.187

----------
# System: Escherichia coli TOP10
# assay_details: shrunken log2 fold change of peptide-encoding DNA abundance (4.5 h post-induction vs induction); higher = less antimicrobial activity (less host growth inhibition)
# measurement_conditions: time post-induction: 4.5 h; library: site-saturation at positions 5, 18, 19, 20
experimental_readout: shrunken log2 fold change
One number for each entry.

Solved cases (3 shown):
seq=RRIRSRPPRLPRPRPRPEPFPRP reported_value=0.621
seq=RRIRKRPPRLPRPRPRPPQVPRP reported_value=0.00672
seq=RRIRCRPPRLPRPRPRPLEQPRP reported_value=0.0367

Now for the sequence whose shrunken log2 fold change we want.
Query string: Query shrunken log2 fold change on Escherichia coli TOP10 for "RRIRNRPPRLPRPRPRPYDKPRP"
Result string: -0.388

----------
# Test system: Escherichia coli TOP10
# assay_details: shrunken log2 fold change of peptide-encoding DNA abundance (4.5 h post-induction vs induction); higher = less antimicrobial activity (less host growth inhibition)
# measurement_conditions: time post-induction: 4.5 h; library: site-saturation at positions 5, 18, 19, 20
Answer Not satisfied if shrunken log2 fold change is under -0.05, and Satisfied if it is -0.05 or more.

seq=RRIRKRPPRLPRPRPRPCGGPRP discrete_label=Satisfied
seq=RRIRGRPPRLPRPRPRPGRWPRP discrete_label=Satisfied
seq=RRIRHRPPRLPRPRPRPTSPPRP discrete_label="Not satisfied"
seq=RRIRDRPPRLPRPRPRPPMAPRP discrete_label="Not satisfied"
seq=RRIRMRPPRLPRPRPRPGMFPRP discrete_label=Satisfied
seq=RRIRQRPPRLPRPRPRPKPPPRP discrete_label=Satisfied
seq=RRIRCRPPRLPRPRPRPLYMPRP discrete_label="Not satisfied"
seq=RRIRGRPPRLPRPRPRPHIWPRP discrete_label=Satisfied
seq=RRIRDRPPRLPRPRPRPDHNPRP discrete_label=Satisfied
seq=RRIRWRPPRLPRPRPRPFGKPRP discrete_label="Not satisfied"

Lab note: next sequence to report on.
Query string: Determine whether measured shrunken log2 fold change meets or exceeds -0.05 for "RRIRFRPPRLPRPRPRPWHNPRP"
Result string: Satisfied

----------
# System: Escherichia coli TOP10;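 note: peptides expressed intracellularly from a pBAD plasmid library in pooled LB shake-flask culture, induced with 0.3% L-arabinose, DNA abundance read by NGS, three biological replicates, DESeq2 with apeglm shrinkage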
# assay_details: shrunken log2 fold change of peptide-encoding DNA abundance (4.5 h post-induction vs induction); higher = less antimicrobial activity (less host growth inhibition)
# measurement_conditions: time post-induction: 4.5 h; library: site-saturation at positions 5, 18, 19, 20
experimental_readout: shrunken log2 fold change
Answers are plain numbers.

Solved cases (10 shown):
seq=RRIRHRPPRLPRPRPRPSISPRP test_target="Escherichia coli TOP10" experimental_readout="shrunken log2 fold change" reported_value=-0.727
seq=RRIRGRPPRLPRPRPRPFYTPRP test_target="Escherichia coli TOP10" experimental_readout="shrunken log2 fold change" reported_value=-0.173
seq=RRIRARPPRLPRPRPRPTWPPRP test_target="Escherichia coli TOP10" experimental_readout="shrunken log2 fold change" reported_value=1.13
seq=RRIRQRPPRLPRPRPRPCEFPRP test_target="Escherichia coli TOP10" experimental_readout="shrunken log2 fold change" reported_value=-0.311
seq=RRIRWRPPRLPRPRPRPPWAPRP test_target="Escherichia coli TOP10" experimental_readout="shrunken log2 fold change" reported_value=0.452
seq=RRIRARPPRLPRPRPRPKWFPRP test_target="Escherichia coli TOP10" experimental_readout="shrunken log2 fold change" reported_value=0.053
seq=RRIRRRPPRLPRPRPRPKMHPRP test_target="Escherichia coli TOP10" experimental_readout="shrunken log2 fold change" reported_value=0.443
seq=RRIRYRPPRLPRPRPRPFCWPRP test_target="Escherichia coli TOP10" experimental_readout="shrunken log2 fold change" reported_value=-0.212
seq=RRIRGRPPRLPRPRPRPTAQPRP test_target="Escherichia coli TOP10" experimental_readout="shrunken log2 fold change" reported_value=1.35
seq=RRIRTRPPRLPRPRPRPIGRPRP test_target="Escherichia coli TOP10" experimental_readout="shrunken log2 fold change" reported_value=-0.159

For each entry beneath this line, provide reported shrunken log2 fold change.
1. RRIRKRPPRLPRPRPRPFNKPRP
2. RRIRGRPPRLPRPRPRPPLHPRP
3. RRIRRRPPRLPRPRPRPRDSPRP
4. RRIRRRPPRLPRPRPRPHCAPRP
5. RRIRYRPPRLPRPRPRPIHMPRP
6. RRIRCRPPRLPRPRPRPLTWPRP
7. RRIRRRPPRLPRPRPRPIPSPRP

Result string:
1. -0.0789
2. 0.501
3. -0.0748
4. 0.419
5. -0.0796
6. -0.16
7. 0.247

Query string: I'd like to know its shrunken log2 fold change. The sequence in question is "RRIRERPPRLPRPRPRPPICPRP"
Result string: -0.302
